For each of the compounds below, state its TGI.
tested on: M14 melanoma; experiment: NCI tumour cell line growth inhibition, 48 h
Give bare numbers, in µM.

COC(=O)[C@@]1(O)C[C@H]2O[C@]1(C)n1c3ccccc3c3c4c(c5c6ccccc6n2c5c31)C(=O)NC4 = 1.15
CCCCCCCSCC1C(=O)C23C(O)C1CCC2C12COC3(O)C(O)C1C(C)(C)CCC2O (stereo unspecified) = 24.7

Quick request: TGI for each listed item, please.
1. CC1CC(C)(O)CC(C(O)CC2CC(=O)NC(=O)C2)C1=O (stereo unspecified)
2. O=C(/C=C/c1ccc(C(F)(F)F)cc1)c1ccc(Nc2nc(NCCO)nc(N3CCOCC3)n2)cc1
3. O=C(N/C(=C\c1ccc(Oc2ccc(Cl)c(Cl)c2)cc1)c1nc2ccccc2[nH]1)c1ccccc1
4. CCOC(=O)C#Cc1c(CC(=O)OCC)nnn1[C@H]1O[C@@H](CO)[C@@H]2OC(C)(C)O[C@@H]21
5. N=C(N)c1ccc(-c2ccc(-c3cccs3)s2)nc1
6. COc1cc(C2c3cc4c(cc3OC(NCc3ccccc3)C2C)OCO4)cc(OC)c1OC (stereo unspecified)

# output
1: 0.551; 2: 4.28; 3: 34.8; 4: 12.8; 5: 3.63; 6: 67.1

For each of the compounds below, note its TGI.
1. OCCNCCNc1c2ccccc2nc2oc3ccccc3c12
2. O=Cc1ccc(O)c2ncccc12
3. COC(=O)c1cc2oc(/C=C3\SC(=S)N(NC(C)=O)C3=O)cc2n1Cc1ccccc1
4. C=CC(=O)Nc1cccc(C)c1Nc1ncc2cc(-c3c(Cl)c(OC)cc(OC)c3Cl)ccc2n1

# output
1. 24.5
2. 26.1
3. 16.4
4. 57.2

* * *

tested on: UACC-62 melanoma; assay: NCI tumour cell line growth inhibition, 48 h
# if value of TGI reaches 20 µM, tag Fulfilled; if it stays below, tag Not fulfilled

[C-]#[N+]C(C)(C)C[C@H]1CC(C)C2CCC(C)C3([N+]#[C-])CCC(=C)C1[C@H]23 (stereo partly specified) = Not fulfilled
CC1=NN(C(=O)c2ccccc2O)C(c2ccccc2Cl)C1C(=O)Nc1ccccc1 (stereo unspecified) = Fulfilled
CCCCCCCSCC1C(=O)C23C(O)C1CCC2C12COC3(O)C(O)C1C(C)(C)CCC2O (stereo unspecified) = Fulfilled
O=CC1C[C@@H](N2C(=O)O[C@@H](c3ccccc3)[C@H]2c2ccccc2)[C@@H]1COCc1ccccc1 (stereo partly specified) = Fulfilled
Cc1ccc(/C=C2\CCCC\C2=N\O)cc1 = Fulfilled
CCCCc1ccc(Nc2nc(N)c3ncn(COCCO)c3n2)cc1 = Fulfilled

# input Has "Clc1nc(Cl)c(Cc2ccccc2)c(Cl)n1" a recorded TGI greater than or equal to 20 µM?
# output Not fulfilled

# input Is TGI at least 20 µM? Consider CCN1C[C@]2(C)CC[C@H](OCc3ccccc3)C34C5C[C@@H]6CC[C@](O)(C(C[C@@H]32)C14)C5[C@H]6OCc1ccccc1 (stereo partly specified)
# output Fulfilled

# input Decide: TGI of CC1(C)C2C/C(=C\c3ccccc3)C(=O)C1C2 (stereo unspecified) >= 20 µM?
# output Fulfilled

* * *

tested on: CCRF-CEM leukemia; test: NCI tumour cell line growth inhibition, 48 h
REPORTED_ENDPOINT: TGI

Below, each entry is followed by its recorded TGI result.
O=[N+]([O-])/C=C/COCc1cc2c(cc1Br)OCO2 = 11.5 µM
Cc1nn(-c2nc3ccccc3[nH]2)c2c1C(c1ccc3c(c1)OCO3)CC(=O)N2 (stereo unspecified) = > 24.7 µM
Nc1nc(Cl)cc(NCCCCCCCCCCCCNc2cc(Cl)nc(N)n2)n1 = > 100 µM
CN(C)CCCNc1ccc2nnn3c4ccc(OC(=O)c5ccc([N+](=O)[O-])cc5)cc4c(=O)c1c23 = 5.39 µM
Cc1ccc(CCCCCOc2ccc(C3=NCCO3)cc2)s1 = > 100 µM

# input For the compound "O=C1C[C@@H]2CCCC[C@@H]2C12SCCS2" , report TGI.
# output > 100 µM

* * *

Kindly supply the reported TGI values for the records listed here.
test system: HCC-2998 colon; assay: NCI tumour cell line growth inhibition, 48 h

In the examples that follow, each entry is paired with its recorded TGI.
CCN1C[C@]2(C)CC[C@H](OCc3ccccc3)C34C5C[C@@H]6CC[C@](O)(C(C[C@@H]32)C14)C5[C@H]6OCc1ccccc1 (some centres undefined) = > 100 µM
ClCc1ccc2ccc3ccc(CCl)nc3c2n1 = 8.59 µM
CCCCCCCSCC1C(=O)C23C(O)C1CCC2C12COC3(O)C(O)C1C(C)(C)CCC2O (centres undefined) = 31.4 µM

Lab note: each molecule below needs its TGI filled in.
1. Cc1ccc(S(=O)(=O)NC2=NS(=O)(=O)c3cc(C)c(Cl)cc3S2)cc1
2. O=C1C[C@H]2CC3(CC[C@H]2CN1)OCCO3
3. CN(C)/C=C/c1nnnn1-c1ccc(I)cc1
4. C/C=C/C=C\C1OC(O)([C@H](CC)C(=O)NC/C=C/C=C(\C)[C@H](OC)C(C)C2OC(\C=C/C=C/C=C(\C)C(=O)c3c(O)ccn(C)c3=O)[C@H](O)[C@@H]2O)C(O)C(O)C1(C)C (some centres undefined)

# output
["> 100 µM", "> 100 µM", "> 100 µM", "> 100 µM"]

Give me TGI for each of these molecules, listed below.
1. COC(=O)[C@@H](C)C[C@H](Cc1ccccc1)NC(=O)c1csc([C@@H](C[C@H](C(C)C)N(C)C(=O)C2(NC(=O)[C@H]3CCCCN3C)CC2)OC(C)=O)n1
2. COc1ccc2nc(C)cc(Nc3ccccc3O)c2c1

# output
1: > 33.3 µM; 2: 34.3 µM

* * *

tested on: UACC-62 melanoma; experiment: NCI tumour cell line growth inhibition, 48 h
Where a SMILES comes first, the peptide text is derived from it. The star is where a group is joined. Cbz = O=C(OCc1ccccc1)*
Please provide measured TGI for the entries that follow.

Below, each entry is followed by its recorded TGI result.
CCOC(=O)C(CC(=O)OC)NC(=O)C(CC(=O)OC)NC(=O)C(CC(=O)OC)NC(=O)C(CC(=O)OC)NC(=O)OCc1ccccc1 (stereo unspecified) (Cbz-D(OMe)D(OMe)D(OMe)D(OMe)-OEt; configuration not given here) = > 100 µM
C/C(=C\CC[C@]1(C)OC(C)(C)OC1CC/C(C)=C/CO[Si](c1ccccc1)(c1ccccc1)C(C)(C)C)CC/C=C/CO[Si](C)(C)C(C)(C)C (stereo partly specified) = > 100 µM
CN(C)CCCNc1ccc2nnn3c4ccc(OC(=O)c5ccc([N+](=O)[O-])cc5)cc4c(=O)c1c23 = 37 µM
O=C(n1c(=O)n(-c2ccc(Cl)cc2)c(=O)n1C(=O)C(Cl)(Cl)Cl)C(Cl)(Cl)Cl = > 100 µM
N#CC(NNC(=O)c1ccccc1O)c1ccccc1 (stereo unspecified) = 1.93 µM
Cc1ccc(CCCCCOc2ccc(C3=NCCO3)cc2)s1 = > 100 µM
COc1ccc(CCc2ccccc2CC(=O)O)cc1 = > 100 µM
CCOC1C=CCCO1 (stereo unspecified) = > 100 µM

Give me TGI for each of these compounds, listed below.
1. COC(=O)C1(C)CCCC2(C)C3CCC4CC3(C=C4CO)CCC12 (stereo unspecified)
2. OC(CNC1CCCC1)Cn1c2ccccc2c2ccccc21 (stereo unspecified)
3. C=CCN=C1NC(=O)C(CC(=O)Nc2ccc(C)cc2)S1 (stereo unspecified)

# output
1: > 100 µM; 2: > 100 µM; 3: > 100 µM

* * *

tested on: HS 578T breast; test: NCI tumour cell line growth inhibition, 48 h
Provide the reported TGI of each item.
Answers are plain numbers, in µM.

Cc1ccc(/C(O)=C/c2nc3ccccc3[nH]c2=O)c(C)c1 = 59.2

# input Tell me its TGI given "CN(C)CCNC(=O)c1cc2c3ccccc3[nH]c2c2ncccc12" as the entry.
# output 28.1

* * *

system: HL-60(TB) leukemia; experiment: NCI tumour cell line growth inhibition, 48 h
Provide the recorded TGI for the entries that follow.
Numbers only, in µM.

Consider the reported TGI for these molecules:
C1=NCCNCCN=Cc2ccccc2OCc2cccc(n2)COc2ccccc21 = 6.84
COc1ccc(/C=C2\CN(C)CC3C2=NC(=S)NC3c2ccc(OC)cc2)cc1 (stereo unspecified) = 14.8

Go through the items and report each one's TGI.
1. CN(C)c1ccc(N=Nc2cccc3ncccc23)cc1
2. COC(=O)c1cc2oc(/C=C3\SC(=S)N(NC(C)=O)C3=O)cc2n1Cc1ccccc1

# output
[35.9, 13.8]

* * *

Exercise: state measured TGI for each of the compounds provided.
test system: CAKI-1 renal; assay: NCI tumour cell line growth inhibition, 48 h

Hi there! I need TGI for each item below, if you can.
1. O=C(NCP(=O)(O)O)c1cccnc1
2. CC1/C(=N/Nc2ccc([N+](=O)[O-])cc2)CC2C3(C)CCC2(C(C)C(=O)O)C(=O)C13 (stereo not given)
3. CC(=O)N1N=C(c2c(O)ccc3ccccc23)CC1c1ccc(Cl)cc1 (stereo not given)
4. Cc1ccc(S(=O)(=O)NC2=NS(=O)(=O)c3cc(C)c(Cl)cc3S2)cc1
5. CC(C)(C)N(Cc1ccoc1)C(=O)/C=C\S(=O)c1ccccc1 (stereo not given)

# output
> 100 µM
> 100 µM
> 100 µM
> 100 µM
27.6 µM
